Biological target: OTU domain-containing protein 3 (Homo sapiens)
Experiment: Validation of screening hits, potency titration, in vitro enzymatic, OTU domain-containing protein 3 DUB inhibitors (AID 1645868)
Details: purified OTUD3, ubiquitin-rhodamine cleavage fluorescence, 2 h
Calls of active or inactive are those of the source.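 Rule for the calls: active = maximal percent inhibition of the deubiquitinase OTUD3 of at least 30% across the tested doses; inactive = the rest.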
Labels: 1 (yes) for active, 0 (no) for inactive

                                   compound  answerlabel
0  O=C(CNC(=O)c1cc2ccccc2[nH]1)Nc1ccc2c(c1)OCCO2       0 (no)
1  O=C(CCn1c(=O)c2ccccc2n(Cc2cc(=O)n3ccccc3n2)c1=O)NCCc1ccc(Cl)cc1      1 (yes)
2  CC1(C)CC(n2[nH]c(=O)c3c2NC(=O)CSC3c2ccc(OCc3ccccc3)cc2)CCO1 (centres undefined)      1 (yes)
3  Cc1ccc2c(c1C)NC(=O)[C@]21[C@@H]2C(=O)N(c3cccc(Cl)c3)C(=O)[C@@H]2[C@@H]2CCCN21       0 (no)
4  CCOc1ccc(-c2ccc3nnc(SCC(=O)Nc4cccc(C(C)=O)c4)n3n2)cc1       0 (no)
5             O=C(Nc1cc(Cl)cc(Cl)c1)c1csnn1      1 (yes)
6  CO/C=C/C(=O)c1cc2cnc3c(=N)cc(NC(C)=O)c([nH]1)c23       0 (no)
7  CN1CCC(N(C)S(=O)(=O)c2ccc(NC(=O)c3cccc(OCc4ccccc4)c3)cc2)CC1       0 (no)
8  Cc1ccc(C)c(Cn2nnc3c(=O)[nH]c(C4CCN(S(=O)(=O)c5ccc(S(=O)(=O)NC6CC6)cc5)CC4)nc32)c1      1 (yes)

###

Target: OTU domain-containing protein 3 (Homo sapiens) (UniProt Q5T2D3)
Sequence (Q5T2D3 whole entry, looked up, the tested form may be a part): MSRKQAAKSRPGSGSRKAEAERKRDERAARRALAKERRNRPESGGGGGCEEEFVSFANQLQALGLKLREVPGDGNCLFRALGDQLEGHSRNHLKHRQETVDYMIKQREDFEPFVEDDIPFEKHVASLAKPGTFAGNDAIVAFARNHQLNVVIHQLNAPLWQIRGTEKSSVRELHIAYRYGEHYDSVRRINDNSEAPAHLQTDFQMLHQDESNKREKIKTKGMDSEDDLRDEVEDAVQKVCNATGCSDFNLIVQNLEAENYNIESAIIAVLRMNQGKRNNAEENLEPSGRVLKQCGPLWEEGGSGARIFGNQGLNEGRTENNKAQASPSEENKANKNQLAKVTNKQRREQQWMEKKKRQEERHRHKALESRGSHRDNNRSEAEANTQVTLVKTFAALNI
Test: Validation of screening hits, potency titration, in vitro enzymatic, OTU domain-containing protein 3 DUB inhibitors (AID 1645868)
Details: purified OTUD3, ubiquitin-rhodamine cleavage fluorescence, 2 h
Calls of active or inactive are those of the source.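 Rule for the calls: active = maximal percent inhibition of the deubiquitinase OTUD3 of at least 30% across the tested doses; inactive = the rest.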
propertyName: IC50

smilesCode	observed
Cc1c(-c2nsc(NC(=O)c3ccc(Cl)cc3)n2)nnn1-c1ccccc1F	18.9 µM
Cc1cccc(-n2cnc(C(=O)NCc3ccc(F)cc3)c2)n1	> 50 µM (inactive)
CO/C1=C\C(C)=C/[C@@H](C)[C@@H](O)[C@@H](C)C/C(C)=C/C=C/[C@H](OC)[C@@H]([C@@H](C)[C@@H](O)[C@H](C)[C@@]2(O)C[C@@H](OC(=O)/C=C/C(N)=O)[C@H](C)[C@@H](C(C)C)O2)OC1=O	> 50 µM (inactive)
Cc1nc2nc(SCc3nc4ccccc4n3C)[nH]c2cc1Br	> 50 µM (inactive)

###

Target: OTU domain-containing protein 3 (Homo sapiens) (UniProt Q5T2D3)
Assay: Validation of screening hits, potency titration, in vitro enzymatic, OTU domain-containing protein 3 DUB inhibitors (AID 1645868)
Settings: purified OTUD3, ubiquitin-rhodamine cleavage fluorescence, 2 h
The source made the active and inactive calls.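 How the source made its calls: active means maximal percent inhibition of the deubiquitinase OTUD3 of at least 30% across the tested doses; inactive means the rest.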
Labels: 1 for active, -1 for inactive

compound	answerLabel
CCC1OC(O)(C(C)C(O)C(C)C2OC(=O)/C(C)=C/C(C)=CC(C)C(O)C(C)C/C(C)=C/C=C/C2OC)CC(OC(=O)/C=C/C(=O)NC2=C(O)CCC2=O)C1C (centres undefined)	-1
O=C1N(Cc2ccc(F)cc2)CCN1c1ccc(C(F)(F)F)cn1	-1
CC[C@@]1(O)C[C@H](OC2CC(N(C)C)C(OC3CC(O)C(OC4CCC(=O)C(C)O4)C(C)O3)C(C)O2)c2c(cc3c(c2O)C(=O)c2c(O)ccc(O)c2C3=O)[C@H]1C(=O)OC (some centres undefined)	-1
COc1ccc(NC(=O)c2nnn(-c3ccccc3)c2C)cc1OC	-1
O=C1c2ccccc2-n2c1nc1ccccc1c2=O	-1
COc1ccccc1S(=O)(=O)N1CC[C@@H]2CN(C)[C@@H]2C1	-1
N#Cc1ccc(NC(=O)c2ccc(S(=O)(=O)N3CCCCC3)cc2)cc1	-1
O=S(=O)(c1cccc(F)c1)N1CCc2nc3ccccc3n2CC1	1
CCCCCCCCCC(CCCCCCCCCC(=O)O)O[C@H]1O[C@@H](COC(C)=O)[C@H](O)[C@@H](O)[C@H]1OC(=O)CC(=O)O (some centres undefined)	1
O=C(Cn1cc(S(=O)(=O)Cc2ccc(Cl)cc2)c2ccccc21)N1CCCCC1	-1
COc1cc(NC(=O)Cc2ccccc2)ccc1NC(=O)c1cc2ccccc2o1	1
CC1Oc2cc3c(-c4c(O)cc(O)c5c(O)c6c(cc45)OC(C)C(C)C6=O)c(O)cc(O)c3c(O)c2C(=O)C1C (centres undefined)	1
O=c1c(S(=O)(=O)c2cc(F)cc(F)c2)c[nH]c2cc(Cl)ccc12	1
CC(C)NC(=O)[C@H](Cc1ccccc1)NC(=O)N1CCn2c1nc1ccccc12	-1
NS(=O)(=O)c1ccc(NS(=O)(=O)c2ccc(NC(=O)Nc3ccc(Cl)cc3)cc2)cc1	1
O=C(Nc1nnc2n1CCCS2)c1cccc(Cl)c1	-1
COC(=O)C1C(c2ccc(Cl)cc2Cl)C2(C(=O)c3ccccc3C2=O)C2C=Cc3ccccc3N12 (centres undefined)	-1
O=C(CSc1ccc2nnc(-c3ccccc3)n2n1)N1CCCc2ccccc21	1
CN(CCCNC(=O)c1cccc2c1SCCC2=O)c1ccccc1	-1
COc1ccccc1NC(=O)CSC1=NC2(CCCCC2)Nc2ccccc21	-1
CC(=O)O[C@H]1[C@]2(O)C[C@]34SS[C@](CO)(C(=O)N3[C@@H]2C[C@@]12O[C@@H](C)C(C)(C)C2=O)N(C)C4=O	-1
Cc1cc(C2CC(=O)Nc3c2c(C)nn3-c2nc3ccccc3[nH]2)c(C)s1 (centres undefined)	-1
O=C(Nc1cc(F)c2nc(N3CCOCC3)ccc2c1)C1CC1	-1
Cc1ccc(NC(=O)c2nnn(-c3ccccc3)n2)cc1F	-1
CC(C)NS(=O)(=O)c1cccc2c(NC(=O)C(Cc3ccccc3)NC(=O)c3ccccc3)cccc12 (centres undefined)	-1
Fc1ccccc1Cc1nc(-c2ccc3nncn3c2)no1	-1
Cc1c(S(=O)(=O)NC2CCCCNC2=O)sc2ccc(Cl)cc12 (centres undefined)	-1
CN(C)S(=O)(=O)c1ccc(N2CCCC2)c(C(=O)Nc2ccc(-c3cn4ccsc4n3)cc2)c1	-1
CC1CCCN1C(=O)c1ccn(-c2ccc3ccc(-c4cccnc4)cn23)n1 (centres undefined)	-1
COc1ccc(N(CC(=O)Nc2cccc(F)c2)S(=O)(=O)c2ccc(OC)c(OC)c2)cc1	1
Cc1ccc2c(c1)c(=O)c(C(=O)c1ccccc1)cn2CC(=O)Nc1ccccc1	1
CC(C)(C)c1cc(C[C@@H]2C[C@H](NC(=O)N3CCOCC3)C2(C)C)no1	-1
Cc1ccc(C)c(NS(=O)(=O)c2cc(-c3cnc(C4CC4)o3)ccc2C)c1	-1
O=C(Nc1ccc(F)cc1)Nc1ccccc1OCc1cc(=O)n2ccccc2n1	1
Cc1c(CC(=O)N2CCN(c3ncccn3)CC2)c(=O)oc2cc(O)ccc12	1
Cc1cc(O)c2c3c(c(O)cc2c1)C(=O)c1c(O)cccc1C3=O	1
CC(=O)N1Cc2ccccc2CC2(CCCN(CC3CCOCC3)C2)C1 (centres undefined)	-1
N#Cc1cccnc1N1CCN(C(=O)Nc2cccc3ccccc23)CC1	-1
COc1ccc(/C=C/C(=O)N2CCc3ccccc32)cc1S(=O)(=O)N1CCOCC1	-1

###

Target: OTU domain-containing protein 3 (Homo sapiens) (UniProt Q5T2D3)
Assay: Validation of screening hits, potency titration, in vitro enzymatic, OTU domain-containing protein 3 DUB inhibitors (AID 1645868)
Conditions: purified OTUD3, ubiquitin-rhodamine cleavage fluorescence, 2 h
Active and inactive are the calls of the source.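 How the source made its calls: active means maximal percent inhibition of the deubiquitinase OTUD3 of at least 30% across the tested doses; inactive means the rest.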
Labels: active, inactive

                                 smilescode  answerlabel
0  O=C(Nc1cc(F)ccc1F)c1ccn(COc2ccc(F)c(Cl)c2)n1     inactive
1  COc1c2n(c3ccccc13)[C@@]1(O)C(=O)N(C)C(=O)[C@@]1(O)c1c-2n(C)c2ccc(Cl)cc12     inactive
2  CSc1cccc(C(=O)Nc2ccc(-c3nc4ccccc4[nH]3)cc2)c1       active
3            CCC/C=C\C#CC/C=C\CCCCCCCC(=O)O       active
4     Cc1cc(NC(=O)c2nnn(-c3ccccc3Cl)c2C)no1     inactive
5  COc1cc(/C=C/C(=O)OCC(=O)Nc2ccc([N+](=O)[O-])cc2OC)ccc1O       active
6  COc1ccc2nc(-c3ccc(NC(=O)c4cccc(OC)c4OC)cc3)cn2n1     inactive
7  O=C(CN(Cc1ccc(Cl)cc1)S(=O)(=O)c1ccc(Cl)cc1)N1CCOCC1     inactive
8  O=S(=O)(Nc1ccc(O)cc1)c1ccc2oc3ccc(S(=O)(=O)Nc4ccc(O)cc4)cc3c2c1       active
9  CCOc1ccc(NC(=O)CSc2nc3n[nH]c(C)c3c(=N)n2-c2ccc(OC)cc2)cc1     inactive

Entry source: PubChem BioAssay AID1645868
